Test system: SR cells
test.description: Half inhibitory concentration (IC50) on ALK-positive SR cell proliferation (CCK-8)
Format: cell-based
condition.set: Homo sapiens; SR cells, 72 h drug treatment, CCK-8; read-out: IC50 (nM)/ SR cell line
log10(IC50) listing for selected compounds.
Please keep in mind that the values are log10 of IC50 expressed in nM.

COc1cc(N2CCC(N3CCN(C(=O)CCCCCCSc4cccc5c4CN(C4CCC(=O)NC4=O)C5=O)CC3)CC2)ccc1Nc1ncc(Cl)c(Nc2ccccc2P(C)(C)=O)n1 (centres unmarked) = -0.10

Item: COc1cc(N2CCC(NC(=O)CCSc3cccc4c3CN(C3CCC(=O)NC3=O)C4=O)CC2)ccc1Nc1ncc(Cl)c(Nc2ccccc2P(C)(C)=O)n1 (centres unmarked) | log10(IC50): 0.43

Item: CCc1cc2c(cc1N1CCC(NC(=O)COCCSc3cccc4c3CN(C3CCC(=O)NC3=O)C4=O)CC1)C(C)(C)c1[nH]c3cc(C#N)ccc3c1C2=O (centres unmarked) | log10(IC50): 0.20

Item: CCc1cc2c(cc1N1CCC(N3CCN(C(=O)COCCSc4cccc5c4CN(C4CCC(=O)NC4=O)C5=O)CC3)CC1)C(C)(C)c1[nH]c3cc(C#N)ccc3c1C2=O (centres unmarked) | log10(IC50): -0.77

###

System: SR cells
test.description: Half inhibitory concentration (IC50) on ALK-positive SR cell proliferation (CCK-8)
Type: cell-based
condition.set: Homo sapiens; SR cells, 72 h drug treatment, CCK-8; read-out: IC50 (nM)/ SR cell line
reported.metric: IC50 (nM)
Only the number, expressed in nM, is required.

Answered cases to consult:
CCc1cc2c(cc1N1CCC(N3CCN(C(=O)COCCOCCSc4cccc5c4CN(C4CCC(=O)NC4=O)C5=O)CC3)CC1)C(C)(C)c1[nH]c3cc(C#N)ccc3c1C2=O (stereo not drawn) = 0.38
CCc1cc2c(cc1N1CCN(C3CCN(C(=O)CSc4cccc5c4C(=O)N(C4CCC(=O)NC4=O)C5=O)CC3)CC1)C(C)(C)c1[nH]c3cc(C#N)ccc3c1C2=O (stereo not drawn) = 8.7
COc1cc(N2CCC(N3CCN(C(=O)CCCCSc4cccc5c4C(=O)N(C4CCC(=O)NC4=O)C5=O)CC3)CC2)ccc1Nc1ncc(Cl)c(Nc2ccccc2P(C)(C)=O)n1 (stereo not drawn) = 4.2

# lookup: COc1cc(N2CCC(NC(=O)CCCCCSc3cccc4c3CN(C3CCC(=O)NC3=O)C4=O)CC2)ccc1Nc1ncc(Cl)c(Nc2ccccc2P(C)(C)=O)n1 (stereo not drawn) on SR cells, IC50 = 0.48

# lookup: CCc1cc2c(cc1N1CCC(N3CCN(C(=O)COCCOCCOCCOCCOCCSc4cccc5c4CN(C4CCC(=O)NC4=O)C5=O)CC3)CC1)C(C)(C)c1[nH]c3cc(C#N)ccc3c1C2=O (stereo not drawn) on SR cells, IC50 = 0.43

# lookup: CCc1cc2c(cc1N1CCC(N3CCN(C(=O)CSc4cccc5c4CN(C4CCC(=O)NC4=O)C5=O)CC3)CC1)C(C)(C)c1[nH]c3cc(C#N)ccc3c1C2=O (stereo not drawn) on SR cells, IC50 = 0.22

# lookup: COc1cc(N2CCC(NC(=O)COCCSc3cccc4c3CN(C3CCC(=O)NC3=O)C4=O)CC2)ccc1Nc1ncc(Cl)c(Nc2ccccc2P(C)(C)=O)n1 (stereo not drawn) on SR cells, IC50 = 1.08

# lookup: COc1cc(N2CCC(NC(=O)COCCOCCOCCOCCSc3cccc4c3CN(C3CCC(=O)NC3=O)C4=O)CC2)ccc1Nc1ncc(Cl)c(Nc2ccccc2P(C)(C)=O)n1 (stereo not drawn) on SR cells, IC50 = 7

# lookup: CCc1cc2c(cc1N1CCC(N3CCN(C(=O)CCCCCSc4cccc5c4C(=O)N(C4CCC(=O)NC4=O)C5=O)CC3)CC1)C(C)(C)c1[nH]c3cc(C#N)ccc3c1C2=O (stereo not drawn) on SR cells, IC50 = 50.1

# lookup: COc1cc(N2CCC(N3CCN(C(=O)CSc4cccc5c4C(=O)N(C4CCC(=O)NC4=O)C5=O)CC3)CC2)ccc1Nc1ncc(Cl)c(Nc2ccccc2P(C)(C)=O)n1 (stereo not drawn) on SR cells, IC50 = 11.6
